system: HCT-15 colon; assay: NCI tumour cell line growth inhibition, 48 h; in the data active = GI50 below about 0.43 µM; inactive = the rest
Result category, one only: active, inactive

I'd appreciate the recorded outcome for CC(C)(Oc1ccc(Cl)cc1)C(=O)NC1C2CC3CC1CC(NS(C)(=O)=O)(C3)C2 (configuration not stated) from this test.
inactive

I'd appreciate the recorded outcome for CCN(CC)CCn1c(N)c(-c2nc3ccccc3n2C)c2nc(C#N)c(C#N)nc21 from this test.
inactive

---

test system: NCI-H226 lung; experiment: NCI tumour cell line growth inhibition, 48 h
ENDPOINT: TGI

Cc1nc2c(=O)n(C)c(=O)n(C)c2o1: > 100 µM
Fc1cc(-c2cc(-c3ccccc3)n[nH]2)c(Cl)cc1Cl: > 100 µM

Query compound follows.
Look up TGI with NCI-H226 lung for this compound: CC1(C)N([O-])[N+](=O)C1(C)Br (stereo not drawn)
> 100 µM

---

test system: SW-620 colon; experiment: NCI tumour cell line growth inhibition, 48 h
ENDPOINT: TGI

These solved cases illustrate the format of a correct answer.
COC(=O)C(Cc1nc2ccc(Cl)cc2[nH]c1=O)/C(=N/O)C(=O)Nc1cccc(Cl)c1C (stereo not drawn): > 100 µM
N#CCCN(CCNc1ccccc1)C(=O)Nc1ccc(NC(=O)N(CCC#N)CCNc2ccccc2)cc1: > 100 µM
CC1CN=C(N(C)C(=O)Nc2ccc(Cl)cc2)S1 (stereo not drawn): > 100 µM
CCOP(=O)(/C=C/n1ccc(=O)[nH]c1=O)OCC: > 100 µM
Nc1nc2cc(-c3ccc4ncc(C(=O)N5CCOCC5)n4c3)ccc2o1: > 100 µM

May I ask what TGI has been recorded for O=Cc1ccc(-c2nccc3c2[nH]c2ccccc23)o1 ?
> 100 µM

May I ask what TGI has been recorded for O=C(O)CCC(=O)C(=O)O ?
> 100 µM

May I ask what TGI has been recorded for CN1CCN(Cc2ccc(NC(=O)c3nc4ccc5[nH]ncc5c4c4c3CCCC4)cc2C(F)(F)F)CC1 ?
1.74 µM

May I ask what TGI has been recorded for O=S(=O)(O)c1ccc2c(N=Nc3cccc4ccccc34)c(O)c(S(=O)(=O)O)cc2c1 ?
> 100 µM

May I ask what TGI has been recorded for COC(=O)CCC(C)[C@H]1CCC2C3C(C[C@H](OC(C)=O)[C@@]21C)[C@@]1(C)CCC2(C[C@H]1C[C@H]3OC(C)=O)OOC1(CCCCCCC1)OO2 (stereo partly drawn) ?
> 100 µM

May I ask what TGI has been recorded for CN1CCN(C(=S)N(C(=O)c2cccs2)c2ccccc2)CC1 ?
> 100 µM

---

Item-by-item account of TGI
test system: DU-145 prostate; test: NCI tumour cell line growth inhibition, 48 h

These solved cases illustrate the format of a correct answer.
O=C(Cc1ccc(OCc2cccc(Cl)c2)cc1)NO: 66.2 µM
NS(=O)(=O)c1ccc(Nc2ncc(-c3ccccc3)o2)cc1: > 25 µM
COc1ccc(NS(=O)c2ccc(Cl)cc2)cc1 (stereo not drawn): > 100 µM
O=C(COc1ccc(OCC(=O)N2C(=O)CN(c3ccc(Cl)cc3)C2=S)cc1)N1C(=O)CN(c2ccc(Cl)cc2)C1=S: > 100 µM
CN(C)c1ccc(O)c2c1CC1CC3C(N(C)C)C(=O)C(C(N)=O)=C(O)C3(O)C(=O)C1=C2O (stereo not drawn): 59.1 µM

May I ask what TGI has been recorded for CC(C)OP(=O)(CCCCCCCCC/C=C/c1ccc2c(c1)OCCOCCOCCOCCO2)OC(C)C ?
15.2 µM

---

test system: EKVX NSCLC; experiment: NCI tumour cell line growth inhibition, 48 h
Item-by-item account of TGI

CCOC(=O)Cn1c(=O)n(C)c(=O)c2[nH]cnc21: > 100 µM
COc1cc([C@@H]2c3cc4c(cc3[C@@H](NC(=O)c3cccc(N)c3)C3COC(=O)[C@@H]32)OCO4)cc(OC)c1O (stereo partly drawn): 15.6 µM
N#Cc1nc(-c2cccnc2)oc1N: > 100 µM
CNCCCNc1c2cc(OC)ccc2nc2cccc([N+](=O)[O-])c12: 1.15 µM
COC(=O)C1CCC(=O)C(Sc2ccccc2)C1 (stereo not drawn): > 100 µM

May I ask what TGI has been recorded for O=S(=O)(O)c1ccc2c(N=Nc3cccc4ccccc34)c(O)c(S(=O)(=O)O)cc2c1 ?
> 100 µM

May I ask what TGI has been recorded for CCOC(=O)c1c2c(n(Cc3ccc(Cl)cc3Cl)c1C)-c1nc(Cc3ccccc3)[nH]c1C(=O)C2=O ?
4.49 µM

May I ask what TGI has been recorded for O=C1C=CC(=O)N1n1c(Cc2ccccc2)n[nH]c1=O ?
> 100 µM

---

Item-by-item account of TGI
system: MALME-3M melanoma; assay: NCI tumour cell line growth inhibition, 48 h

Look up TGI with MALME-3M melanoma for this compound: CCOC(=O)NC(=O)c1cn(-c2ccc(CCOC(=O)NCCCCCCNC(=O)OCCc3ccc(-n4c(=O)[nH]cc(C(=O)NC(=O)OCC)c4=O)cc3)cc2)c(=O)[nH]c1=O
> 91.9 µM

Look up TGI with MALME-3M melanoma for this compound: C[C@H](CCC(=O)O)[C@H]1CC[C@H]2[C@@H]3[C@@H](O)C[C@@H]4C[C@H](O)CC[C@]4(C)[C@H]3CC[C@]12C
> 100 µM

Look up TGI with MALME-3M melanoma for this compound: COc1cccc(-n2ncc3c(N/N=C/c4ccc(F)cc4)ncnc32)c1
> 25 µM

Look up TGI with MALME-3M melanoma for this compound: COc1ccc2c(c1)CC[C@@H]1[C@@H]2CC[C@]2(C)C(c3ccsc3)=C(/C=C/C(=O)c3ccccc3)C[C@@H]12
> 100 µM

Look up TGI with MALME-3M melanoma for this compound: CN1C(c2ccccc2)CC(=NOCc2ccccc2)CC1c1ccccc1 (stereo not given)
> 87.8 µM

---

system: SK-MEL-5 melanoma; assay: NCI tumour cell line growth inhibition, 48 h; in the data active = GI50 below about 0.43 µM; inactive = the rest
Result category, one only: 1 = active, -1 = inactive

Reference set, count: 6
O=C1c2[nH]cc(CN3CCN(CCO)CC3)c2C(=O)c2c1c(O)c1ccccc1c2O: -1
O=[N+]([O-])c1cccc2nc3ccccc3c(NCCO)c12: 1
CSc1nn2c(-c3ccc4ccccc4c3)ccnc2c1C#N: -1
O=CC(NC(=O)N(CCCl)N=O)C(O)C(O)C(O)CO (centres undefined): -1
O=C(Nc1cccc(-n2cc(-c3ccncc3)c(-c3ccc(Cl)c(O)c3)n2)c1)Nc1cccc(C(F)(F)F)c1: -1
C=C1C(=O)O[C@H]2[C@H]1CC/C(COC(=O)NCc1[nH]nc3ccccc13)=C\CC[C@@]1(C)O[C@@H]21: -1

Next:
I'd appreciate the recorded outcome for O[C@H]1C=C2[C@H](C[C@@H]1O)CN1C[C@H]2c2cc3c(cc21)OCO3 from this test.
-1

---

test system: IGROV1 ovarian; experiment: NCI tumour cell line growth inhibition, 48 h; in the data active = GI50 below about 0.43 µM; inactive = the rest
Result category, one only: active, inactive

Reference set, count: 6
Oc1ccc(/C=C/c2ccc(O)cc2)cc1: inactive
CNCCCNc1c2cc(OC)ccc2nc2cccc([N+](=O)[O-])c12: active
COc1ccc2c(c1)CC[C@@H]1[C@@H]2CC[C@]2(C)C(c3ccsc3)=C(/C=C/C(=O)c3ccccc3)C[C@@H]12: inactive
CC(C)(C)CC(C)(C)c1ccc(OCCSC(=N)N)cc1: inactive
CCN(CC)CCCN1C(=O)c2c(c(C)c3c(oc4ccc(O)cc43)c2C)C1=O: inactive
CC[C@@]1(O)C(=O)OCc2c1cc1n(c2=O)Cc2cc3c([N+](=O)[O-])c(OC)ccc3nc2-1: active

Next:
I'd appreciate the recorded outcome for CCOC(=O)c1ccc(NC(=O)Nc2nccs2)cc1 from this test.
active

---

system: SR leukemia; assay: NCI tumour cell line growth inhibition, 48 h
ENDPOINT: TGI (µM)
The answer is to be given in µM; state only the numeric part.

These solved cases illustrate the format of a correct answer.
O=C(Nc1cccc(-n2cc(-c3ccncc3)c(-c3ccc(Cl)c(O)c3)n2)c1)Nc1cccc(C(F)(F)F)c1: 20
Cc1cc(C)nc(NS(=O)(=O)c2ccc(NC(=O)c3cccc4c(Nc5ccc(S(=O)(=O)N=C(N)N)cc5)c5ccc(Cl)cc5nc34)cc2)n1: 80.5
CC(SC(=S)Nc1cccc(F)c1)C(=O)O (stereo unspecified): 30.8

May I ask what TGI has been recorded for Cc1ccc(-c2c(C#N)c(N)[nH]c(=S)c2C#N)cc1 ?
66.9

May I ask what TGI has been recorded for O=C(NC1CCCCC1)NS(=O)(=O)c1ccc(-n2nc3c(c2-c2cccs2)Cc2ccccc2-3)cc1 ?
4.01

---

Item-by-item account of TGI
tested on: SF-295 CNS; test: NCI tumour cell line growth inhibition, 48 h

These solved cases illustrate the format of a correct answer.
Cn1cc(C2=C(c3cn(C)c4cc(C(=O)O)ccc34)C(=O)NC2=O)c2ccccc21: > 25 µM
Cc1[nH]c2ncn(Nc3ccccc3)c(=N)c2c1Cc1ccccc1: > 100 µM
COc1c(-c2nc3nc(N4CCN(C)CC4)ccc3[nH]2)cc(OC)c2c1nc(CO)n2C: > 100 µM
O=C(O)C1(C(=O)O)CC1: > 100 µM
COC(=O)C(Cc1nc2ccc(Cl)cc2[nH]c1=O)/C(=N/O)C(=O)Nc1cccc(Cl)c1C (stereo unspecified): > 100 µM

Query compound follows.
May I ask what TGI has been recorded for COc1cc(/C=C/c2cccnc2)cc(OC)c1OC ?
> 100 µM
